- Test system: KLF4
- method_description: KLF4 gene expression by RT-PCR, MDA-MB-231
- Assay type: cell-based, human
- test_parameters: MDA-MB-231, relative to vehicle control as 1
Field 'label' (enum: Satisfied / Not satisfied). Set to Satisfied when KLF4 (gene fold increase) is strictly under 2 fold; else Not satisfied.

structure_smiles: Cc1ccc2[nH]c(C34CC5CC(CC(C5)C3)C4)c(-c3nc4c5cccnc5c5ncccc5c4[nH]3)c2c1
target_or_system: KLF4
discrete_label: Satisfied
--
structure_smiles: CC(C)(C)c1ccc2[nH]c(C(C)(C)C)c(-c3nc4c5cccnc5c5ncccc5c4[nH]3)c2c1
target_or_system: KLF4
discrete_label: Satisfied
--
structure_smiles: Cc1[nH]c2ccccc2c1-c1nc2c3cccnc3c3ncccc3c2[nH]1
target_or_system: KLF4
discrete_label: Satisfied
--
structure_smiles: CCc1cccc2c(-c3nc4c5cccnc5c5ncccc5c4[nH]3)c(C(C)(C)C)[nH]c12
target_or_system: KLF4
discrete_label: Not satisfied
--
structure_smiles: Cc1[nH]c2ccc(F)cc2c1-c1nc2c3cccnc3c3ncccc3c2[nH]1
target_or_system: KLF4
discrete_label: Satisfied
